# testedSystem: human FLT3-ITD enzyme (Homo sapiens)
# procedureSummary: FLT3 enzyme inhibitory ability (ADP-Glo kinase assay)
# testSettings: human FLT3-ITD enzyme 10 ng, ATP 10 μM, 25° C. 1 hour
reportedProperty: IC50

{"molecule": "COc1cc(Nc2nc(N3N=CCC3c3ccccc3)c3sccc3n2)cc(OC)c1OC (stereo not shown) [Example 51]", "IC50": "> 500 nM"}
{"molecule": "COc1cc(Nc2nc(N3OCC[C@H]3c3ccccc3)c3cc[nH]c3n2)ccc1N1CCN(CCO)CC1 [Example 82]", "IC50": "≥ 250 nM"}
{"molecule": "COc1cc(Nc2nc(N3OCC[C@@H]3c3ccccc3)c3cc[nH]c3n2)ccc1N1CCC(N2CCN(C)CC2)CC1 [Example 129]", "IC50": "> 500 nM"}

Continue with the molecule presented below.
Q) For COc1cc(Nc2nc(N3OCC[C@H]3c3ccccc3)c3cc[nH]c3n2)ccc1N1CCC(N2CCN(C)CC2)CC1 [Example 87] , what is its reported IC50?
A) 250 to 500 nM
